Target protein (sequence): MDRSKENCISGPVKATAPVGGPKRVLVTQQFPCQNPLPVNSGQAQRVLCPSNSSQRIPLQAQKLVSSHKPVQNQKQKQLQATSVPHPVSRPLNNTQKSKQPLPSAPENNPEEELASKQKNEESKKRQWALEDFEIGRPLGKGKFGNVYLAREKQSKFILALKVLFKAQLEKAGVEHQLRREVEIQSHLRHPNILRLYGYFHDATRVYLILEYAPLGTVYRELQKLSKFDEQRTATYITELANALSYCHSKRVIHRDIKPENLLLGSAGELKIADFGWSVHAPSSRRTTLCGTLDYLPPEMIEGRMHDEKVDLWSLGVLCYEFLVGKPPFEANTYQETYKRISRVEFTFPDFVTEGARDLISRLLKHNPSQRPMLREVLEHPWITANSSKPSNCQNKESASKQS
Below, each entry is listed alongside its reported IC50.

compound	result
Cc1c(-c2ccnc(Nc3ccc(-n4cccn4)cc3)n2)c(C)n2c1C(=O)NCC2 [Example I-72]	< 1000 nM
Cc1c(-c2ccnc(Nc3cccc(NS(C)(=O)=O)c3)n2)c(C)n2c1C(=O)NCC2 [Example I-42]	< 1000 nM
COc1cc(Nc2nccc(-c3c(C)c4n(c3C)CCNC4=O)n2)ccc1S(=O)(=O)NCCN(C)C [Example I-23]	< 1000 nM
Cc1c(-c2ccnc(Nc3ccc(C(=O)NC4CCN(C)CC4)cc3)n2)c(C)n2c1C(=O)NCC2 [Example I-115]	< 100 nM
Cc1c(-c2ccnc(Nc3ccc(N4CCSCC4)cc3)n2)c(C)n2c1C(=O)NCC2 [Example I-37]	< 1000 nM
Cc1c(-c2ccnc(Nc3ccc4c(c3)COCO4)n2)c(C)n2c1C(=O)NCC2 [Example I-45]	< 100 nM

# query: IC50 of entry COc1cc(Nc2nccc(-c3c(C)c4n(c3C)CCNC4=O)n2)ccc1S(=O)(=O)NC(C)C [Example I-18]
< 100 nM

# query: IC50 of entry CC(=O)Nc1ccc(Nc2nccc(-c3c(C)c4n(c3C)CCNC4=O)n2)cc1Cl [Example I-47]
< 1000 nM

# query: IC50 of entry COc1cc(Nc2nccc(-c3c(C)c4n(c3C)CCNC4=O)n2)ccc1S(=O)(=O)N1CCCCC1 [Example I-22]
< 1000 nM

# query: IC50 of entry Cc1ccc(Oc2ccc(Nc3nccc(-c4c(C)c5n(c4C)CCNC5=O)n3)cc2)cc1 [Example I-89]
< 10000 nM

# query: IC50 of entry Cc1c(-c2ccnc(Nc3cccc(-c4cnco4)c3)n2)c(C)n2c1C(=O)NCC2 [Example I-49]
< 1000 nM

# query: IC50 of entry Cc1c(-c2ccnc(Nc3ccc(S(=O)(=O)N4CCCCC4)cc3)n2)c(C)n2c1C(=O)NCC2 [Example I-56]
< 100 nM

# query: IC50 of entry Cc1c(-c2ccnc(Nc3ccccc3F)n2)c(C)n2c1C(=O)NCC2 [Example I-65]
< 1000 nM

# query: IC50 of entry Cc1c(-c2ccnc(Nc3ccc(OC(F)(F)F)cc3)n2)c(C)n2c1C(=O)NCC2 [Example I-61]
< 1000 nM

# query: IC50 of entry Cc1c(-c2ccnc(Nc3cccc(C(=O)O)c3)n2)c(C)n2c1C(=O)NCC2 [Example I-25]
< 1000 nM

# query: IC50 of entry COCCNC(=O)CCc1cccc(Nc2nccc(-c3c(C)c4n(c3C)CCNC4=O)n2)c1 [Example I-105]
< 100 nM

Values compiled from patent US8404692B2.
